Ref: patent US20230407373A1

Tested on: gRNA of HCoV-OC43
Type: binding
Conditions: type n_48_v: 48 hours post-infection, no-probe control on infected cells
Readout type: background (spectral count, no-probe control)
Format: numeric value only, no unit, no commentary.

{"Substance": "TARDBP", "Target under test": "gRNA of HCoV-OC43", "Quantitative readout": 3}
{"Substance": "HNRNPU", "Target under test": "gRNA of HCoV-OC43", "Quantitative readout": 8}

Prompt line: Quick check: background (spectral count, no-probe control) on gRNA of HCoV-OC43, item HNRNPK: host protein, UniProt P61978 ?
Response line: 8

Prompt line: Follow-up item: HNRNPAB
Response line: 2
